# reported MIC; entries follow
Tested on: Staphylococcus aureus ATCC 25923
PROTOCOL DESCRIPTION: MIC by microdilution in liquid medium (CLSI / CA-SFM)
Assay type: cell-based
RUN PARAMETERS: Staphylococcus aureus, ATCC25923, S. aureus ATCC 25923, reference strain; read-out: MIC
PROPERTY LABEL: MIC (µg/mL)

SMILES ENTRY | SYSTEM TESTED | OUTPUT UNIT | QUANTITATIVE READOUT
N=C(N)NCCc1ccc(OCCCOc2ccc(CCNC(=N)N)cc2)cc1 | Staphylococcus aureus ATCC 25923 | µg/mL | 4
N=C(N)NCCc1ccc(OCCCCCCCOc2ccc(CCNC(=N)N)cc2)cc1 | Staphylococcus aureus ATCC 25923 | µg/mL | 1
N=C(N)NCCc1ccc(OCOc2ccc(CCNC(=N)N)cc2)cc1 | Staphylococcus aureus ATCC 25923 | µg/mL | 16
N=C(N)CCc1ccc(OCCCCCCOc2ccc(CCC(=N)N)cc2)cc1 | Staphylococcus aureus ATCC 25923 | µg/mL | 4
N=C(N)NCCc1ccc(OCCCCCCCCCOc2ccc(CCNC(=N)N)cc2)cc1 | Staphylococcus aureus ATCC 25923 | µg/mL | 0.25

Data origin: patent US8703825B2
